Sourced from the supplement of paper PMC10567573

B1: WEE1 (parent)
chain: FLGSSFSPVRCGGPGDASPRGCGA

variants of: B1; assay: protein stability index of a GFP-peptide fusion (GPS, HEK-293T) (PSI 1-6); higher = more stable; conditions: c terminus: a fixed tail appended;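 also: lentivirally expressed fusions sorted by FACS into six bins by GFP to DsRed ratio, PSI derived from sequencing read proportions per bin multiplied by bin number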
Tick class 1 if protein stability index is 2 or greater. Tick class 0 if protein stability index is less than 2.

[
  {
    "residueChange": "S7I",
    "qualitativeLabel": "class 1"
  },
  {
    "residueChange": "S7R",
    "qualitativeLabel": "class 1"
  },
  {
    "residueChange": "F1I",
    "qualitativeLabel": "class 1"
  },
  {
    "residueChange": "G23R",
    "qualitativeLabel": "class 0"
  },
  {
    "residueChange": "L2G",
    "qualitativeLabel": "class 0"
  },
  {
    "residueChange": "F6C",
    "qualitativeLabel": "class 1"
  },
  {
    "residueChange": "P19V",
    "qualitativeLabel": "class 1"
  }
]
